The measurements presented in this section are drawn from patent US20190367516A1.

Target Under Test: human M2 receptor (Homo sapiens, UniProt P08172)
Sequence (P08172 whole entry): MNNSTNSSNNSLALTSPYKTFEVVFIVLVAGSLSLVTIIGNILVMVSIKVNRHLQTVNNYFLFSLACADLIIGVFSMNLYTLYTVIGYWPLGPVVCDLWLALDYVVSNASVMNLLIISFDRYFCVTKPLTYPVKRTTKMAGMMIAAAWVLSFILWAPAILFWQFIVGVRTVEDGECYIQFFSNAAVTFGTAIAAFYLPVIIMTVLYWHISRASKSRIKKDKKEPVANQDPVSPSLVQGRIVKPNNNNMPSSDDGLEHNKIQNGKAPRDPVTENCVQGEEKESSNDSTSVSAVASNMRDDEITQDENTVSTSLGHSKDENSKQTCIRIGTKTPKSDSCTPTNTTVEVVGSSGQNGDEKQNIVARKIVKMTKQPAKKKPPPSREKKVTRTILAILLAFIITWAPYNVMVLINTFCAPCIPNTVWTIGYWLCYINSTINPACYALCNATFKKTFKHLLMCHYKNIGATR
Test Context: Receptor activity EC50, allosteric potency at EC20 acetylcholine; M2-GIRK1/4 reporter cells; in some cases mean of two or more determinations
Parameter EC50: see the listing below.

The following compounds have reported results that may help.
Compound: CC[C@H](NC(=O)c1cn(-c2c(F)cc(F)cc2Cl)c2nc(N3C[C@@H](O)[C@H](O)C3)ccc2c1=O)C(F)(F)F [Example 566]
Value Measured: 16 nM
--
Compound: O=C(N[C@@H](C1CC1)C(F)(F)F)c1cn(-c2c(F)cc(F)cc2F)c2nc(N3CC[C@H](O)C3=O)ccc2c1=O
Value Measured: 42 nM
--
Compound: CC(NC(=O)c1cn(-c2ccc(F)cc2F)c2nc(N3C[C@@H](O)CC3=O)ccc2c1=O)C(F)(F)C(F)(F)F (single isomer, unassigned) [Example 623]
Value Measured: 67 nM

# EC50 lookup, item CO[C@@H]1CN(c2ccc3c(=O)c(C(=O)N[C@@H](C4CC4)C(F)(F)F)cn(-c4c(F)cc(F)cc4F)c3n2)C[C@H]1O (single isomer, unassigned) [Example 583]
19 nM

# EC50 lookup, item O=C(NC(CC(F)(F)F)C1CC1)c1cn(-c2c(F)cc(F)cc2F)c2nc(N3C[C@@H](O)[C@H](O)C3)ccc2c1=O (single isomer, unassigned) [Example 440]
23 nM

# EC50 lookup, item `CC(C)C[C@@H](NC(=O)c1cn(-c2c(F)cc(F)cc2F)c2nc(N3C[C@@H](O)[C@H](O)C3)ccc2c1=O)C(F)(F)F`
8 nM
